B1: HDV Ribozyme (parent)
chain: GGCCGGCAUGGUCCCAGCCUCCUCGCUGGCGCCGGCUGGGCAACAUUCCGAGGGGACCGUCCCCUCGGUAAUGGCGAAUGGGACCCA

Variants of: B1
Assay: self-cleavage, relative activity (ratio to wild type); higher = more cleavage; co-transcriptional
Okay, here is how we bin by self-cleavage: group A (below 0.09), group B (0.09 to below 0.2), group C (0.2 or more)

Consider G28U G34C . To which self-cleavage class does it belong?
group B

Consider G68U A78U . To which self-cleavage class does it belong?
group C

Consider A8G C15A . To which self-cleavage class does it belong?
group C

Consider G25U G54A . To which self-cleavage class does it belong?
group A

Consider G35A C58A . To which self-cleavage class does it belong?
group C

Consider A42C C58A . To which self-cleavage class does it belong?
group C

Consider G11A U72A . To which self-cleavage class does it belong?
group B

Consider G11C G31C . To which self-cleavage class does it belong?
group A

Consider G11C A71U . To which self-cleavage class does it belong?
group C

Consider C4A U12G . To which self-cleavage class does it belong?
group A

Consider C22G G52C . To which self-cleavage class does it belong?
group A
